assay_system: recombinant human secretory phospholipase A2 (Homo sapiens, UniProt P14555)
Sequence (P14555 21-144): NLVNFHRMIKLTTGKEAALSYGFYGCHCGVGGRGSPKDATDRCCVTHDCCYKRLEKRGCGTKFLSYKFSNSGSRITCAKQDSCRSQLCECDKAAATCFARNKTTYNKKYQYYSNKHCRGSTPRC
measurement_protocol: Inhibition Test of Human Secretory Phospholipase A2 (chromogenic assay)
assay_context: sPLA2 50 ng/well, 40° C., 30 minutes, OD 405 nm, 96 well microtiterplate
pIC50: −log10 of the molar value.
quantity_kind: pIC50

Record excerpt, results attached:
{"molecule": "CCc1c(C(=O)C(N)=O)c2c(OCC(=O)O)nc(C)cn2c1Cc1ccccc1-c1cccnc1 [Compound I-66]", "pIC50": 7.35}
{"molecule": "CCc1c(C(=O)C(N)=O)c2c(OCC(=O)OC)nc(C)cn2c1Cc1ccccc1-c1ccc(C)cc1 [Compound I-69]", "pIC50": 7.48}
{"molecule": "Cc1cn2c(Cc3ccccc3)c(C3CC3)c(C(=O)C(N)=O)c2c(OCC(=O)O)n1 [Compound I-76]", "pIC50": 7.54}
{"molecule": "CCc1c(C(=O)C(N)=O)c2c(OCC(=O)O)nccn2c1Cc1cccc(OC)c1 [Compound I-10]", "pIC50": 7.85}

a = COC(=O)COc1nc(C)c(Cc2ccc(F)cc2)n2cc(C)c(C(=O)C(N)=O)c12 [Compound I-59]
b = Cc1cn2c(Cc3ccccc3)c(C)c(C(=O)C(N)=O)c2c(OCC(=O)O)n1 [Compound I-84]
c = CCc1c(C(=O)C(N)=O)c2c(OCC(=O)OC)nc(C)cn2c1Cc1ccccc1CCc1ccccc1 [Compound I-73]
d = CCc1c(C(=O)C(N)=O)c2c(OCC(=O)O)nc(C)cn2c1Cc1ccccc1-c1ccc(F)cc1 [Compound I-100]
e = CCc1c(C(=O)C(N)=O)c2c(OCC(=O)OC)nc(C)cn2c1CC1CCCC1 [Compound I-23]
Sort the molecules on pIC50; start with the lowest figure. Please express your ranking as an ordered list of the labels. a, e, c, d, b

###

assay_system: recombinant human secretory phospholipase A2 (Homo sapiens)
Sequence (P14555 21-144): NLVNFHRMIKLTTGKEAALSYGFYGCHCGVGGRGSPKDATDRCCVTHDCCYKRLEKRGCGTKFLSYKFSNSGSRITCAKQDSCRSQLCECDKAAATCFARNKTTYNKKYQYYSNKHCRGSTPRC
measurement_protocol: Inhibition Test of Human Secretory Phospholipase A2 (chromogenic assay)
assay_context: sPLA2 50 ng/well, 40° C., 30 minutes, OD 405 nm, 96 well microtiterplate
quantity_kind: IC50 (µM)

a = CCOC(=O)COc1nc(C)cn2c(Cc3ccccc3-c3cccs3)c(CC)c(C(=O)C(N)=O)c12
b = CCCOC(=O)COc1nc(C)cn2c(Cc3ccc(F)cc3)c(CC)c(C(=O)C(N)=O)c12
# compare IC50 for a vs b ; return the one with the smaller value Answer by stating the label of the chosen item. a
(a: 0.048 µM, b: 0.282 µM)

I = CCOC(=O)COc1nc(C)cn2c(Cc3ccc(F)cc3)c(CC)c(C(=O)C(N)=O)c12
II = Cc1c(C(=O)C(N)=O)c2c(OCC(=O)O)nccn2c1Cc1ccccc1
Parameter check: reported IC50 is higher for which label, I or II ? Answer by stating the label of the chosen item. I

###

assay_system: recombinant human secretory phospholipase A2 (Homo sapiens, UniProt P14555)
measurement_protocol: Inhibition Test of Human Secretory Phospholipase A2 (chromogenic assay)
Type: biochemical
assay_context: sPLA2 50 ng/well, 40° C., 30 minutes, OD 405 nm, 96 well microtiterplate
Experimental: Test Example: Inhibition Test of Human Secretory Phospholipase A2 In order to identify and evaluate an inhibitor of recombinant human secretory phospholipase A2, the following chromogenic assay is utilized. The assay herein has been applied for high volume screening wherein 96 well microtiterplate is used. […] 5) Changes in absorbancy for 30 minutes are measured by a plate reader, and inhibition activity was calculated (OD: 405 nm). […]
pIC50: −log10 of the molar value.
quantity_kind: pIC50

{"compound": "CCc1c(C(=O)C(N)=O)c2c(OCC(=O)O)nccn2c1CC1CCCCC1 [Compound I-8]", "reported_measurement": 7.96}
{"compound": "CCc1c(C(=O)C(N)=O)c2c(OCC(=O)O)nc(C)cn2c1Cc1ccccc1Cc1ccccc1 [Compound I-28]", "reported_measurement": 8.15}
{"compound": "COC(=O)COc1nc(C)cn2c(Cc3ccc(F)cc3)c(C3CC3)c(C(=O)C(N)=O)c12 [Compound I-77]", "reported_measurement": 5.86}

a = CCc1c(C(=O)C(N)=O)c2c(OCC(=O)O)nc(C)cn2c1Cc1ccccc1F [Compound I-26]
b = CCc1c(C(=O)C(N)=O)c2c(OCC(=O)OC)nc(C3CCCCC3)cn2c1Cc1ccccc1 [Compound I-79]
Parameter check: reported pIC50 is higher for which label, a or b ? Answer by stating the label of the chosen item. a

A = CCc1c(C(=O)C(N)=O)c2c(OCC(=O)OC)nc(C3CCCCC3)cn2c1Cc1ccccc1-c1ccccc1 [Compound I-81]
B = CCc1c(C(=O)C(N)=O)c2c(OCC(=O)O)nc(C)cn2c1Cc1ccccc1CCc1ccccc1 [Compound I-74]
# compare pIC50 for A vs B ; return the one with the smaller value Answer by stating the label of the chosen item. A
(A: 6.70, B: 8.22)

###

// melting point lookup, one value per entry

{"compound": "CCc1c(C(=O)C(N)=O)c2c(OCC(=O)OC)nc(CC(C)C)cn2c1Cc1ccccc1 [Compound I-45]", "reported_measurement": "129 to 130 °C"}
{"compound": "CCc1c(C(=O)C(N)=O)c2c(OCC(=O)O)nc(C)cn2c1Cc1ccc(F)cc1 [Compound I-20]", "reported_measurement": "204 to 205 °C"}
{"compound": "CCc1c(C(=O)C(N)=O)c2c(OCC(=O)O)nc(C)cn2c1Cc1ccccc1Cc1ccccc1 [Compound I-28]", "reported_measurement": "180.5 to 182.5 °C"}

Recorded result, CCc1c(C(=O)C(N)=O)c2c(OCC(=O)OC)nccn2c1CC1CCCCC1 [Compound I-7] , melting point: 162 to 163 °C

Recorded result, CCc1c(C(=O)C(N)=O)c2c(OCC(=O)O)nc(C)cn2c1Cc1cccc(-c2ccc(C)s2)c1 [Compound I-64] , melting point: 190.5 to 193 °C

###

quantity_kind: melting point

{"smiles_data": "CCc1c(C(=O)C(N)=O)c2c(OCC(=O)OC)nccn2c1Cc1cccs1", "reported_measurement": "165 to 166 °C"}
{"smiles_data": "Cc1cn2c(Cc3ccccc3)c(C)c(C(=O)C(N)=O)c2c(OCC(=O)O)n1", "reported_measurement": "199.5 to 201 °C"}

Recorded result, "NC(=O)C(=O)c1c(C2CC2)c(Cc2ccccc2)n2ccnc(OCC(=O)O)c12" , melting point: 189 to 191 °C

###

assay_system: recombinant human secretory phospholipase A2 (Homo sapiens, UniProt P14555)
measurement_protocol: Inhibition Test of Human Secretory Phospholipase A2 (chromogenic assay)
assay_context: sPLA2 50 ng/well, 40° C., 30 minutes, OD 405 nm, 96 well microtiterplate
pIC50: −log10 of the molar value.
quantity_kind: pIC50

{"smiles_data": "CCc1c(C(=O)C(N)=O)c2c(OCC(=O)OC)nccn2c1CC1CCCCC1", "pIC50": 6.41}
{"smiles_data": "CCc1c(C(=O)C(N)=O)c2c(OCC(=O)OC)nc(C(C)C)cn2c1Cc1ccccc1", "pIC50": 6.82}
{"smiles_data": "CCc1c(C(=O)C(N)=O)c2c(OCC(=O)OCCN3CCOCC3)nc(C)cn2c1Cc1ccccc1-c1ccc(F)cc1", "pIC50": 7.11}
{"smiles_data": "CCc1c(C(=O)C(N)=O)c2c(OCC(=O)OC)nc(CO)cn2c1Cc1ccccc1", "pIC50": 6.14}
{"smiles_data": "CCc1c(C(=O)C(N)=O)c2c(OCC(=O)O)nccn2c1Cc1ccccc1", "pIC50": 7.96}

A = CCc1c(C(=O)C(N)=O)c2c(OCC(=O)O)nccn2c1CC1CCCC1
B = CCc1c(C(=O)C(N)=O)c2c(OCC(=O)OC)nccn2c1Cc1ccc2ccsc2c1
# compare pIC50 for A vs B ; return the one with the smaller value Answer by stating the label of the chosen item. B
(B: 6.71, A: 8.22)
